test: Half life in monkey liver microsomes at 0.5 uM preincubated for 10 mins before NADPH and UDPGA challenge; assay type: ADME, Macaca mulatta, Microsome; conditions: rhesus monkey
Property: half-life at 0.5 µM

These solved cases illustrate the format of a correct answer.
smiles_data=COc1cc(C2CCN(CC(N)=O)CC2)ccc1Nc1ncc2ccc(-c3ccccc3OC)n2n1 result="> 40 min"
smiles_data=CNC(=O)CN1CCC(c2ccc(Nc3ncc4ccc(-c5ccccc5OC)n4n3)c(OC)c2)CC1 result="< 12 min"
smiles_data=COc1cc(C2CCN(CC(N)=O)CC2)ccc1Nc1ncc2c(Cl)cc(-c3ccccc3N(C)S(C)(=O)=O)n2n1 result="15 min"
smiles_data=COc1cc(C2CCN(CC(N)=O)CC2)ccc1Nc1ncc2c(O)cc(-c3ccccc3N(C)S(C)(=O)=O)n2n1 result="< 5 min"
smiles_data=COc1cc(C2CCN(C[C@@H](C)O)CC2)ccc1Nc1ncc2ccc(-c3ccccc3N(C)S(C)(=O)=O)n2n1 result="< 5 min"

Return reported half-life at 0.5 µM. Input molecule: COc1cc(C2CCN(CC(N)=O)CC2)ccc1Nc1ncc2c(C)cc(-c3ccccc3N(C)S(C)(=O)=O)n2n1
6 min

Return reported half-life at 0.5 µM. Input molecule: COc1cc(C2CCN(CC(N)=O)CC2)ccc1Nc1ncc2ccc(-c3ccccc3N(C)S(C)(=O)=O)n2n1
< 5 min

Return reported half-life at 0.5 µM. Input molecule: COc1cc(C2CCNCC2)ccc1Nc1ncc2ccc(-c3ccccc3N(C)S(C)(=O)=O)n2n1
< 5 min

Return reported half-life at 0.5 µM. Input molecule: COc1cc(C2CCN(CCO)CC2)ccc1Nc1ncc2ccc(-c3ccccc3N(C)S(C)(=O)=O)n2n1
< 5 min

Return reported half-life at 0.5 µM. Input molecule: COc1cc(C2CCN(C[C@@H](C)O)CC2)ccc1Nc1ncc2ccc(-c3ccccc3OC)n2n1
21 min

Values were extracted from ChEMBL document CHEMBL2157957.
